Tested on: DeltatarO mutant
Assay: S. aureus survival, RN4220 and DeltatarO strains – OD600, teichoic acid synthesis inhibitors, primary screen (AID 463173)
Details: S. aureus RN4220 wild type/DeltatarO growth, OD600, 18 h, stronger effect = lower value, screened at 18.75 µg/mL (by protocol)
The whole screen tested about 52,000 compounds, of which about 4,300 (8.3%) were called active. The sample as a whole holds a higher share of actives than the screen did.
Measured attribute: survival (%)
One number for each entry, in %.

Cc1ccc(S(=O)(=O)c2nnn3c2nc(NC2CCCCC2)c2sccc23)cc1C: 35

Give survival for all compounds that follow.
1. O=S(=O)(c1ccc(Cl)cc1)c1nnn2c1nc(NC1CCCCC1)c1sccc12
2. O=S(=O)(c1ccc(Br)cc1)c1nnn2c1nc(NC1CCCCCC1)c1sccc12
3. COc1cc(C(=O)n2nc(-c3ccco3)nc2NCc2ccc(Cl)cc2)cc(OC)c1OC
4. Cc1cc(NS(=O)(=O)c2ccc(NC(=O)COc3ccc(Cl)cc3)cc2)nc(C)n1

[41, 63, 82, 54]

###

Test system: DeltatarO mutant
Experiment: S. aureus survival, RN4220 and DeltatarO strains – OD600, teichoic acid synthesis inhibitors, primary screen (AID 463173)
Conditions: S. aureus RN4220 wild type/DeltatarO growth, OD600, 18 h, stronger effect = lower value, screened at 18.75 µg/mL (by protocol)
About 4,300 (8.3%) of roughly 52,000 compounds were called active. The sample holds actives, similar compounds and a random draw of the others, so the mix is not that of the screen.
Please go through the items and note down their survival.
Answers are plain numbers, in %.

Give survival for all compounds that follow.
1. COc1ccc2c(c1)c1c(c(=O)n(CCc3ccccc3)c(=O)n1Cc1cccc(C)c1)n2C
2. Cc1cccc(C)c1NC(=O)CCS(=O)(=O)c1cccc2nonc12
3. CCNc1nc(NCC)nc(N(n2cnnc2)S(=O)(=O)c2ccc(C)cc2)n1
4. Cc1cc(F)ccc1NC(=O)CCS(=O)(=O)c1cccc2nsnc12
5. CCS(=O)(=O)c1cccc(C(=O)Nc2ccc(-c3nc4ccccc4s3)c(O)c2)c1

70
74
1
59
85

###

System: DeltatarO mutant
Assay: S. aureus survival, RN4220 and DeltatarO strains – OD600, teichoic acid synthesis inhibitors, primary screen (AID 463173)
Conditions: S. aureus RN4220 wild type/DeltatarO growth, OD600, 18 h, screened at 18.75 µg/mL (by protocol)
About 4,300 (8.3%) of roughly 52,000 compounds were called active. Rule as the data show it: active = survival mostly below about 52% (no sharp cut-off); inactive = mostly above about 56%. The sample holds actives, similar compounds and a random draw of the others, so the mix is not that of the screen.
Pick from true (1) for active, false (0) for inactive when you respond.

Example cases with answers are listed next.
CCCc1ccc(OCC(=O)Nc2sc(C(=O)OCC)c(C)c2C(=O)OCC)cc1: false (0)
O=c1oc2ccc3ccccc3c2cc1-c1nnc(Nc2ccccc2)s1: false (0)
Cc1cccc(NS(=O)(=O)c2nnc(NC(=O)C3CCCCC3)s2)c1: true (1)
COC(=O)c1c(NC(=O)COc2ccc(Cl)cc2)sc(C)c1C: false (0)

What did the test return for "CCN(CC)C(=O)c1sc(NC(C)=O)c(C(=O)OC)c1C" ?
false (0)

What did the test return for "COc1ccc(N(Cc2cc3cccc(C)c3[nH]c2=O)C(=O)c2cccc(Cl)c2)cc1" ?
false (0)

What did the test return for "CCOC(=O)c1c(NC(=O)COc2ccc(OC)cc2)sc(C(=O)N(CC)CC)c1C" ?
true (1)

What did the test return for "CCOC(=O)c1c(NC(=O)COc2cc(C)ccc2C(C)C)sc(C)c1C" ?
false (0)

What did the test return for "Cc1cc(NC(=O)CN2CCC(O)CC2)nc2c1c(=O)oc1ccccc12" ?
false (0)

What did the test return for "Cc1cccc(N(C)S(=O)(=O)c2nnc(NC(=O)C3CCCCC3)s2)c1" ?
false (0)

###

Test system: DeltatarO mutant
Experiment: S. aureus survival, RN4220 and DeltatarO strains – OD600, teichoic acid synthesis inhibitors, primary screen (AID 463173)
Conditions: S. aureus RN4220 wild type/DeltatarO growth, OD600, 18 h, screened at 18.75 µg/mL (by protocol)
Out of some 52,000 compounds screened, about 4,300 (8.3%) were called active. Cut-off read from the data, not from the text of the source: active = survival mostly below about 52% (no sharp cut-off); inactive = mostly above about 56%. Many of the other results were omitted from the sample, so actives are more common in it than they were.
Pick from active, inactive when you respond.

Example cases with answers are listed next.
CC(C)(C)n1cnc2cc(N=Cc3ccccc3O)ccc21: inactive
CCc1cccc(NC(=O)CSc2ncc3c(n2)-c2ccccc2N(Cc2ccccc2C)S3(=O)=O)c1: active
Cc1cccc(C)c1NC(=O)c1ccc2nc(CCc3ccccc3)oc2c1: inactive
CCOCCn1ccc2c(OCC(=O)Nc3cc(C)cc(C)c3)cccc2c1=O: inactive

Consider now this further molecule.
What did the test return for "CCOCCn1ccc2c(OCC(=O)Nc3cccc(F)c3)cccc2c1=O" ?
inactive

###

Please go through the items and note down their survival.
Tested on: DeltatarO mutant
Test: S. aureus survival, RN4220 and DeltatarO strains – OD600, teichoic acid synthesis inhibitors, primary screen (AID 463173)
Conditions: S. aureus RN4220 wild type/DeltatarO growth, OD600, 18 h, stronger effect = lower value, screened at 18.75 µg/mL (by protocol)
The campaign covered roughly 52,000 compounds. About 4,300 (8.3%) were called active. This excerpt belongs to a sample that is enriched for actives.
Answers are plain numbers, in %.

# example entries with known answers
Cc1ccc(Cn2ccn(CC(=O)Nc3c(C)cc(C)cc3C)c(=O)c2=O)cc1: 47
Cc1ccc(-c2nc3ccccn3c2Nc2c(C)cccc2C)o1: -2
Cc1ccc2nc(-c3ccco3)c(Nc3ccc4c(c3)OCCO4)n2c1: 67
C=CCC(NCc1ccco1)c1ccccc1 (centres undefined): 69
Cc1ccccc1OCC(=O)Nc1nnc(SCc2cc(=O)n3cc(Cl)ccc3n2)s1: 84

Give survival for all compounds that follow.
1. CCc1ccc(NC(=O)Cn2ccn(-c3ccc(OC)cc3)c(=O)c2=O)cc1
2. COc1cc(NC(=O)N2CCSc3ccccc32)cc(OC)c1OC
3. Cc1ccn2c(Nc3ccc4c(c3)OCO4)c(-c3ccc(C)o3)nc2c1
4. CCOc1ccccc1C(=O)N(C)c1ccccc1
5. Cc1ccc(Nc2c(-c3ccc(Br)o3)nc3ccccn23)cc1
6. COc1ccc(CNC(=O)CN(C)S(=O)(=O)c2ccc3[nH]c4c(c3c2)CCCC4)cc1

[67, 52, 81, 92, 112, 70]

Give survival for all compounds that follow.
1. c1coc(-c2nc3ccccn3c2Nc2ccc3c(c2)OCCO3)c1
2. CCOC(=O)C1=C(C)NC(=O)NC1C1CC=CCC1 (centres undefined)

53
111

Give survival for all compounds that follow.
1. CC(C)C(=O)c1cn(CC(=O)NCc2cccs2)c2ccccc12
2. O=S1(=O)CCC(N2C(=S)SC3CS(=O)(=O)CC32)C1 (centres undefined)
3. COc1cc(C(=O)NCc2nnnn2-c2ccc(C)c(C)c2)cc(OC)c1OC
4. O=C(CSc1nc2c(c(=O)[nH]1)CCCC2)Nc1ccc(Br)cc1
5. Brc1ccc(-c2nc3ccccn3c2Nc2ccc3c(c2)OCCO3)o1
6. COc1ccccc1NC(=O)Cn1ccn(-c2cc(C)cc(C)c2)c(=O)c1=O
7. O=C(Cn1ccn(-c2ccc(F)cc2)c(=O)c1=O)Nc1ccc(F)cc1

[88, 96, 98, 58, 85, 55, 60]

###

System: DeltatarO mutant
Assay: S. aureus survival, RN4220 and DeltatarO strains – OD600, teichoic acid synthesis inhibitors, primary screen (AID 463173)
Conditions: S. aureus RN4220 wild type/DeltatarO growth, OD600, 18 h, screened at 18.75 µg/mL (by protocol)
In all, about 52,000 compounds went through this assay and about 4,300 (8.3%) were called active. No stated cut-off is given here; in the data, active means survival mostly below about 52% (no sharp cut-off); inactive means mostly above about 56%. For the sample, actives were picked, then their nearest neighbours and some compounds at random.
Pick from active, inactive when you respond.

Example cases with answers are listed next.
Cc1ccc(C)c(NC(=O)C(c2ccccc2)N2Cc3ccccc3C2=O)c1 (stereo not given): inactive
CCOCCc1nn2c(=O)cc(COC(=O)c3ccco3)nc2s1: inactive
O=C(C1CCCCC1)N(Cc1cccnc1)c1nc2c(F)cc(F)cc2s1: inactive
CCCc1nn2c(=O)cc(COC(=O)c3cccc(NC(=O)c4ccc(OCC)cc4)c3)nc2s1: active
COc1ccc(-c2noc(CN(C(C)C)S(=O)(=O)c3ccc(Br)cc3)n2)cc1: active

What did the test return for "Cc1ccc(CNC(=O)CCS(=O)(=O)c2cc3c4c(c2)CCN4C(=O)CC3)cc1" ?
inactive

What did the test return for "COC(=O)Cn1c(=NC(=O)c2ccc3c(c2)OCCO3)sc2ccccc21" ?
inactive

What did the test return for "O=C(Cn1ncc2c3ccccc3n(Cc3cccc(Cl)c3)c2c1=O)NCc1cccs1" ?
inactive

What did the test return for "COc1ccc(S(=O)(=O)N(Cc2nc(-c3ccc(C)cc3)no2)C2CCCCC2)cc1" ?
inactive

What did the test return for "COc1ccc(/C=C2\SC(=S)N(CCC(=O)NCCO)C2=O)cc1" ?
inactive
